Hey, just so you know, these numbers are from patent US6150376A.

molecular target: serotonin transporter (Rattus norvegicus, UniProt P31652); construct: from tissue; assay: [3H]5-HT uptake (re-uptake inhibition at the serotonin transporter); format: biochemical; conditions: ratio of 5-HT uptake Ki to DA uptake Ki
Sequence (P31652 whole entry): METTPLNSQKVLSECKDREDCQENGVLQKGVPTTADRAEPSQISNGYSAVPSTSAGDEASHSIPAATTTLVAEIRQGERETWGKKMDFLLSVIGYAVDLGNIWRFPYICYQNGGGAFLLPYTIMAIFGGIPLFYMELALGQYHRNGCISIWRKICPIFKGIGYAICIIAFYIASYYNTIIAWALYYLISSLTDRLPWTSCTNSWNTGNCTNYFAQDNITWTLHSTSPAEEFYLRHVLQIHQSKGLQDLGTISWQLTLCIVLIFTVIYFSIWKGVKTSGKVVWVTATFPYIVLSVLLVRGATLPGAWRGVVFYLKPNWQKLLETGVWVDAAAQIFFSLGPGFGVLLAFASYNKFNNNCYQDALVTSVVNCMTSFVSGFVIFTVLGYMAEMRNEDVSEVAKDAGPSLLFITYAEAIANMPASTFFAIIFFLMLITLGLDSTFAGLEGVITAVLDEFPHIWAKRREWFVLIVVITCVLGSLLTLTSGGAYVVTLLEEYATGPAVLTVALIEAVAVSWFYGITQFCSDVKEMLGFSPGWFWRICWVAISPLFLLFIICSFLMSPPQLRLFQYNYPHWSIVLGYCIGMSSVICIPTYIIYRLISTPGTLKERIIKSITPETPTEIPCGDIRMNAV
quantity: 5-HT/DA (ratio of uptake Ki)

> print(dat)
                                   compound                      quantity  readout.value
1  O=C1CN2CCC(c3ccc(Cl)cc3)C1C2 (stereo not drawn) [Compound (+)-5]  5-HT/DA (ratio of uptake Ki)            2.4
2  C=C1CN2C3CCC2C1C(c1ccc(C)cc1)C3 (racemic) [Compound (±)-40]  5-HT/DA (ratio of uptake Ki)          0.038
3  CCCC[C@@H]1CC[C@@H]2C3CN[C@H]2C[C@@]31c1ccc(C)cc1 (racemic) [Compound 42a]  5-HT/DA (ratio of uptake Ki)            6.3
4  O=C1CN2CCC(c3ccc(Cl)cc3)C1C2 (stereo not drawn) [Compound (-)-4]  5-HT/DA (ratio of uptake Ki)           0.11
5  O=C1CN2CCC(c3ccc(Cl)cc3)C1C2 (stereo not drawn) [Compound (+)-4]  5-HT/DA (ratio of uptake Ki)           0.16
6  Cc1ccc(C2CC3CCC4C2c2ccccc2CN34)cc1 (racemic)  5-HT/DA (ratio of uptake Ki)          0.074
7  O=C1CN2CCC(c3ccc(Cl)cc3)C1C2 (stereo not drawn) [Compound (-)-5]  5-HT/DA (ratio of uptake Ki)            1.3

====

target: norepinephrine transporter (Rattus norvegicus); test: [3H]NE uptake (re-uptake inhibition at the norepinephrine transporter); settings: Ki ± SE; Krebs-Ringer-HEPES buffer
Sequence (Q63380 1-617): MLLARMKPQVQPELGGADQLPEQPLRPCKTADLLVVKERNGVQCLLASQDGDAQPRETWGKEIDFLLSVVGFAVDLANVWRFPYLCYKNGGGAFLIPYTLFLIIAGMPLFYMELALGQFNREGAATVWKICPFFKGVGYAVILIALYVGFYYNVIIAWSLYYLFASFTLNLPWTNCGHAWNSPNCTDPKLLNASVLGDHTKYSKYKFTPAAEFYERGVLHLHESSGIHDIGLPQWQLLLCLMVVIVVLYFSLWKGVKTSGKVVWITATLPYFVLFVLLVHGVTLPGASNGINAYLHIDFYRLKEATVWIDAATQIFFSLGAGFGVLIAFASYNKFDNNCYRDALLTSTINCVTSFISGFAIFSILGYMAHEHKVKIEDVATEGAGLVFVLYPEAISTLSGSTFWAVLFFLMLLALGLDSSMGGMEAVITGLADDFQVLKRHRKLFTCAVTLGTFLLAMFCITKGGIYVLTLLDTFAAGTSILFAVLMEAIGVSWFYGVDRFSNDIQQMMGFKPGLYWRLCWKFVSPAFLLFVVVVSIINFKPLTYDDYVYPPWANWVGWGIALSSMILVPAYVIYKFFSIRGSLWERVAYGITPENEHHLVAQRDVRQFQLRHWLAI
Item-by-item account of Ki
quantity: Ki (µM)

> print(dat)
                                   compound   u  readout.value
1  C=C1CN2C3CCC2C1C(c1ccc(C)cc1)C3 (racemic) [Compound (±)-40]  µM        0.00269
2  O=C1CN2CCC(c3ccc(Cl)cc3)C1C2 (stereo not drawn) [Compound (-)-4]  µM           70.9
3  CCCC[C@@H]1CC[C@@H]2C3CN[C@H]2C[C@@]31c1ccc(C)cc1 (racemic) [Compound 42a]  µM        0.00299
4  O=C1CN2CCC(c3ccc(Cl)cc3)C1C2 (stereo not drawn) [Compound (+)-5]  µM           4.53
5  Cc1ccc(C2CC3CCC4C2c2ccccc2CN34)cc1 (racemic)  µM        0.00106
6  O=C1CN2CCC(c3ccc(Cl)cc3)C1C2 (stereo not drawn) [Compound (+)-4]  µM           38.3
7  O=C1CN2CCC(c3ccc(Cl)cc3)C1C2 (stereo not drawn) [Compound (-)-5]  µM           4.65

====

Item-by-item account of Ki
target: dopamine transporter (Rattus norvegicus, UniProt P23977); construct: from tissue; assay: [3H]Mazindol binding at the dopamine transporter; settings: Ki ± SE; Krebs-Ringer-HEPES buffer
Sequence (P23977 whole entry): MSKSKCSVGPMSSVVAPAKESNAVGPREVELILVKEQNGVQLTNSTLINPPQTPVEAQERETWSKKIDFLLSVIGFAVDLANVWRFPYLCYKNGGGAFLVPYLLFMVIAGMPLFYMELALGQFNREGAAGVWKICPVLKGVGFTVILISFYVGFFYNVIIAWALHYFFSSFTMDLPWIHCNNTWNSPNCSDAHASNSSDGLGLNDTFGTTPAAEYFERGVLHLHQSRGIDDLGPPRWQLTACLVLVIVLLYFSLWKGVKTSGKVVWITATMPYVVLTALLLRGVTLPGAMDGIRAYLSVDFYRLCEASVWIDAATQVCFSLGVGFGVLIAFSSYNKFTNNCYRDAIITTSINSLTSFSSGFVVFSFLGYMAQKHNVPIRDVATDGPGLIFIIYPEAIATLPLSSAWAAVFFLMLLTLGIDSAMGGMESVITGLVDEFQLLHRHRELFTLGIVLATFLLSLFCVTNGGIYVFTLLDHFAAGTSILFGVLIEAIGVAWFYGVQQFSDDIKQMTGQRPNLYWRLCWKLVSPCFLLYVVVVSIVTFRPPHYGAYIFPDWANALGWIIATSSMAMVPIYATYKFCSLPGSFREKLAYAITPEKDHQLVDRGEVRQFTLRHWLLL
quantity: Ki (µM)

> print(dat)
                                   compound   u  readout.value
1  O=C1CN2CCC(c3ccc(Cl)cc3)C1C2 (stereo not drawn) [Compound (-)-5]  µM           9.74
2  CCCC[C@@H]1CC[C@@H]2C3CN[C@H]2C[C@@]31c1ccc(C)cc1 (racemic) [Compound 42a]  µM          0.004
3  C=C1CN2C3CCC2C1C(c1ccc(C)cc1)C3 (racemic) [Compound (±)-40]  µM         0.0617
4  O=C1CN2CCC(c3ccc(Cl)cc3)C1C2 (stereo not drawn) [Compound (-)-4]  µM           10.5
5  O=C1CN2CCC(c3ccc(Cl)cc3)C1C2 (stereo not drawn) [Compound (+)-5]  µM           6.77
6  Cc1ccc(C2CC3CCC4C2c2ccccc2CN34)cc1 (racemic)  µM        0.00686
7  O=C1CN2CCC(c3ccc(Cl)cc3)C1C2 (stereo not drawn) [Compound (+)-4]  µM           18.5

====

molecular target: serotonin transporter (Rattus norvegicus, UniProt P31652); construct: from tissue; experiment: [3H]5-HT uptake (re-uptake inhibition at the serotonin transporter); type: biochemical; settings: Ki ± SE; Krebs-Ringer-HEPES buffer
Lab note: anything with Ki below 2000 nM is marked rule met; values at 2000 nM or higher are marked rule not met.

> print(dat)
                                   molecule           cat
1  O=C1CN2CCC(c3ccc(Cl)cc3)C1C2 (stereo not drawn) [Compound (+)-4]  rule not met
2  CCCC[C@@H]1CC[C@@H]2C3CN[C@H]2C[C@@]31c1ccc(C)cc1 (racemic) [Compound 42a]      rule met
3  O=C1CN2CCC(c3ccc(Cl)cc3)C1C2 (stereo not drawn) [Compound (-)-4]      rule met
4  O=C1CN2CCC(c3ccc(Cl)cc3)C1C2 (stereo not drawn) [Compound (-)-5]  rule not met
5  O=C1CN2CCC(c3ccc(Cl)cc3)C1C2 (stereo not drawn) [Compound (+)-5]  rule not met
6  C=C1CN2C3CCC2C1C(c1ccc(C)cc1)C3 (racemic) [Compound (±)-40]      rule met
7  Cc1ccc(C2CC3CCC4C2c2ccccc2CN34)cc1 (racemic)      rule met

====

Item-by-item account of pKi
target: dopamine transporter (Rattus norvegicus); construct: from tissue; assay: [3H]DA uptake (re-uptake inhibition at the dopamine transporter); type: biochemical; settings: Ki ± SE; Krebs-Ringer-HEPES buffer
pKi: −log10 of the molar value.
quantity: pKi

> print(dat)
                                   compound  readout.value
1  Cc1ccc(C2CC3CCC4C2c2ccccc2CN34)cc1 (racemic)           7.62
2  C=C1CN2C3CCC2C1C(c1ccc(C)cc1)C3 (racemic) [Compound (±)-40]           7.22
3  O=C1CN2CCC(c3ccc(Cl)cc3)C1C2 (stereo not drawn) [Compound (+)-5]           4.98
4  O=C1CN2CCC(c3ccc(Cl)cc3)C1C2 (stereo not drawn) [Compound (+)-4]           4.56
5  O=C1CN2CCC(c3ccc(Cl)cc3)C1C2 (stereo not drawn) [Compound (-)-4]           4.78
6  O=C1CN2CCC(c3ccc(Cl)cc3)C1C2 (stereo not drawn) [Compound (-)-5]           5.04
7  CCCC[C@@H]1CC[C@@H]2C3CN[C@H]2C[C@@]31c1ccc(C)cc1 (racemic) [Compound 42a]           8.65
